- Test system: Staphylococcus hominis DMS 20328
- test-description: Minimum inhibitory concentration (MIC) in microtitre plates
- Type: cell-based
- condition: Table 7; 48 hours at 37° C.; MIC = ≦20% growth compared to control
Recorded Minimum inhibitory concentration (MIC) S. hominis for the following molecules

>>> result_value("CCCCCCCCCCCCCCCCNc1cc(C(C)(C)C)nc(-c2ccccn2)n1")
">120 µg/mL"
>>> result_value("CCc1c(C)nc(-c2ccccn2)nc1NCCCCCCCCN")
">120 µg/mL"
>>> result_value("NCCCCCCCCNc1cc(C(F)(F)F)nc(-c2ccccn2)n1")
">80 µg/mL"

// next item, Minimum inhibitory concentration (MIC) S. hominis requested
# lookup: Minimum inhibitory concentration (MIC) S. hominis of Cc1cc(NCCCCCCCN)nc(-c2ccccn2)n1
>120 µg/mL
